Value source: patent US20210388087A1

- Tested Target: T1, Human CD3eg linker (human)
- T1 construct: single-chain construct; also called recombinant human CD3
- T1 chain: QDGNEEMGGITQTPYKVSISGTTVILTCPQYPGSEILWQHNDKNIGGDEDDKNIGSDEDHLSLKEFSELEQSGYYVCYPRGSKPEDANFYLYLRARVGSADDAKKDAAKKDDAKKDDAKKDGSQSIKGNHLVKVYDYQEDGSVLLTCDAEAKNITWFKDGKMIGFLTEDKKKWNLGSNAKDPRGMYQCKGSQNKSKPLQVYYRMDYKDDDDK
- Run Description: SPR, vs unmutated H183/L072
Outcome Measure: fold change of affinity (fold)
Report the value in fold with no unit label.

Worked examples follow.
dBBDu183H V100cH/dBBDu072L (antibody, name in Kabat numbering, V domains shown) VH: QVQLVESGGGLVQPGRSLRLSCAASGFTFSNAWMHWVRQAPGKGLEWVAQIKDKGNAYAAYYAPSVKGRFTISRDDSKNSIYLQMNSLKTEDTAVYYCHYVHYASASTHLPAFGVDAWGQGTTVTVSS VL: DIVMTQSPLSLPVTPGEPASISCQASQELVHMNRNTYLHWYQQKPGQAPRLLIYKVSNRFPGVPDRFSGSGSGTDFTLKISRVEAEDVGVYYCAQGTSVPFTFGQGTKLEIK ... 1.2
dBBDu183H H93F/dBBDu072L (antibody, name in Kabat numbering, V domains shown) VH: QVQLVESGGGLVQPGRSLRLSCAASGFTFSNAWMHWVRQAPGKGLEWVAQIKDKGNAYAAYYAPSVKGRFTISRDDSKNSIYLQMNSLKTEDTAVYYCFYVHYASASTVLPAFGVDAWGQGTTVTVSS VL: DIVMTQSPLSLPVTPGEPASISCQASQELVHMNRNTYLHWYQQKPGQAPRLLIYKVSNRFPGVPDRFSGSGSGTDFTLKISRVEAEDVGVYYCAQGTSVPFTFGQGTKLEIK ... 0

# ---- query binder ----
In: Which fold change of affinity is listed for dBBDu183H V63N/dBBDu072L (antibody, name in Kabat numbering, V domains shown) VH: QVQLVESGGGLVQPGRSLRLSCAASGFTFSNAWMHWVRQAPGKGLEWVAQIKDKGNAYAAYYAPSNKGRFTISRDDSKNSIYLQMNSLKTEDTAVYYCHYVHYASASTVLPAFGVDAWGQGTTVTVSS VL: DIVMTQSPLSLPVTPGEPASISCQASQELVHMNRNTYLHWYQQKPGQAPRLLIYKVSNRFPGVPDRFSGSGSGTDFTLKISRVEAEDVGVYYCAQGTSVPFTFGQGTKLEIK ?
Out: 1.3
